Source listed as patent US20090123479A1.

# assayed target: T1, recombinant human IL-23 (human, UniProt Q9NPF7 20-189; P29460 23-328)
# T1 construct: also called hIL-23
# T1 sequence 1: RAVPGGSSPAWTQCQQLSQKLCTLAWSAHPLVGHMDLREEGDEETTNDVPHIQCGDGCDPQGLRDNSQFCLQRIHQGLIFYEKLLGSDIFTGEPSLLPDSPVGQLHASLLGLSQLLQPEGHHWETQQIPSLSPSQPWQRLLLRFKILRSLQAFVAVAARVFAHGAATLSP
# T1 sequence 2: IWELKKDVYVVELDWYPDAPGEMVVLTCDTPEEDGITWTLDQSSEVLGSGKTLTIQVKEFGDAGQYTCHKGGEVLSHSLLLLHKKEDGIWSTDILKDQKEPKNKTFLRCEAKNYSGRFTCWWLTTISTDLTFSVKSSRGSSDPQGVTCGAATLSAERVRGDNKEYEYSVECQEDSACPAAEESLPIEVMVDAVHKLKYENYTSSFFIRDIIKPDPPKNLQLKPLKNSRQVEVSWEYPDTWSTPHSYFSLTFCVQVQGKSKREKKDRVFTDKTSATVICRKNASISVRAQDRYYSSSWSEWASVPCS
# assay name: SPR (Biacore T100), purified antibody captured on anti-human IgG, IL-23 analyte, 1:1 model
measured metric: kon
# answer = value followed by unit

# annotated cases, reported kon shown
| binder | kon |
| --- | --- |
| A6M0 (antibody, human IgG1, kappa, V domains shown, Full length chains) VH: QVQLVQSGAEVKKPGSSVKVSCKASGYTFTSYGITWVRQAPGQGLEWMGENYPRSGNTYYNEKFKGRVTITADKSTSTAYMELSSLRSEDTAVYYCARVEFISTVVAPYYYALDYWGQGTLVTVSS VL: DIVMTQSPDSLAVSLGERATINCKASKKVTIFGSISALHWYQQKPGQPPKLIYNGAKLESGVPDRFSGSGSGTDFTLTISSLQAEDVAVYYCLQNKEVPYTFGGGTKVEIKR | 2.95e+06 M⁻¹ s⁻¹ |
| A5M0 (antibody, human IgG1, kappa, V domains shown, Full length chains) VH: QVQLVQSGAEVKKPGSSVKVSCKASGYTFTSYGITWVRQAPGQGLEWMGENYPRSGNTYYNEKFKGRVTITADKSTSTAYMELSSLRSEDTAVYYCARAEFISTVVAPYYYALDYWGQGTLVTVSS VL: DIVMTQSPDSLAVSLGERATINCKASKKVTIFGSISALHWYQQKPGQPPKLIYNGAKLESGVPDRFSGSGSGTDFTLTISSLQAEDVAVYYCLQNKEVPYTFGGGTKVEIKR | 1.65e+06 M⁻¹ s⁻¹ |

# ---- query binder ----
Which measured kon value corresponds to A9M3 (antibody, V domains shown) VH: QVQLVQSGAEVKKPGSSVKVSCKASGYTFTSYGITWVRQAPGQGLEWMGEDYPRSGNTYYNEKFKGRVTITADKSTSTAYMELSSLRSEDTAVYYCARVEFISTVVAPYYYALDYWGQGTLVTVSS VL: DIVMTQSPDSLAVSLGERATINCKASKKVTIFGSTSALHWYQQKPGQPPKLIYNGAKLESGVPDRFSGSGSGTDFTLTISSLQAEDVAVYYCLQNKEVPYTFGGGTKVEIK ?
2.64e+06 M⁻¹ s⁻¹
